Target: Glycylpeptide N-tetradecanoyltransferase (Candida albicans (strain SC5314 / ATCC MYA-2876) (Yeast), UniProt P30418)
Sequence (P30418 whole entry): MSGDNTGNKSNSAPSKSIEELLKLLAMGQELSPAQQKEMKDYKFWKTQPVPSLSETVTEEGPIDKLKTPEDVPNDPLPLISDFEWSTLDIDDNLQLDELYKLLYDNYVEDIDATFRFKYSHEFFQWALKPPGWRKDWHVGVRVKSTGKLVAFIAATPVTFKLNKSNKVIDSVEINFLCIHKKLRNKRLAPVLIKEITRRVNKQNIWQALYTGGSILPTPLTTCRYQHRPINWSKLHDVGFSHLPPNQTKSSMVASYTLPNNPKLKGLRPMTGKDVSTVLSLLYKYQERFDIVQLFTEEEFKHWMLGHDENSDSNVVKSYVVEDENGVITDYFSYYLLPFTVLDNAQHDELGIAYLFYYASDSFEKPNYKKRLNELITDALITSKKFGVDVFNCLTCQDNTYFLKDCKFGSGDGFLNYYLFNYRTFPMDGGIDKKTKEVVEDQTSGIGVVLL
Assay: Inhibitory activity against N-myristoyltransferase (NMT) of candida albicans
Non-standard residues stand in square brackets, D forms with d. Residues, ends and D or L forms follow the SMILES beside them. Chg = N[C@H](C(=O)O)C1CCCCC1; Aun = NCCCCCCCCCCC(=O)O
Note to self: IC50 under 0.8 µM means rule met, ties and anything higher get rule not met.

C[C@H](NC(=O)[C@H](CCCCN)NC(=O)[C@H](CO)NC(=O)CCCCCCCCCCN)C(N)=O (H-[Aun]SKA-NH2): rule not met

Attention now turns to another entry.
Problem: Given the entry NCCCCCCCCCCC(=O)N[C@@H](CO)C(=O)N[C@@H](CCCCN)C(=O)N[C@H](C(N)=O)C1CCCCC1 (H-[Aun]SK[Chg]-NH2) , would its reported IC50 be below 0.8 µM?
Result: rule met

* * *

Attribute: Ratio
Experiment: Ratio of the IC50 against human NMT to the IC50 against Candida albicans NMT.
# respond with the number and nothing more

# annotated cases, reported Ratio shown
NCCCCCc1ccc(CC(=O)N[C@@H](CO)C(=O)N[C@@H](CCCCN)C(=O)NCCC2CCCCC2)cc1: 5.2
CC(C)CCNC(=O)[C@H](CCCCN)NC(=O)[C@H](CO)NC(=O)CCCCCCCCCCN: 0.5
NCCCC[C@H](NC(=O)[C@H](CO)NC(=O)Cc1ccc(CCc2ccc(CN)cc2)cc1)C(=O)NCCC1CCCCC1: 83
NCCCCCc1cccc(CC(=O)N[C@@H](CO)C(=O)N[C@@H](CCCCN)C(=O)NCCC2CCCCC2)c1: 3.5
NCCCCCCCCCCC(=O)N[C@@H](CO)C(=O)N[C@@H](CCCCN)C(=O)NCCCC1CCCCCCC1: 3.8
NCCCC[C@H](NC(=O)[C@H](CO)NC(=O)CCCCCCc1ccc(CN)cc1)C(=O)NCCC1CCCCC1: 4.4

Problem: Consider the compound "NCCCCCCCCc1ccc(CC(=O)N[C@@H](CO)C(=O)N[C@@H](CCCCN)C(=O)NCCC2CCCCC2)cc1" and give its measured Ratio.
Result: 70

Problem: Try this compound too: "NCCCC[C@H](NC(=O)[C@H](CO)NC(=O)CCCCC#Cc1ccc(CN)cc1)C(=O)NCCC1CCCCC1"
Result: 4.5

Problem: Try this compound too: CC(C(=O)N[C@@H](CO)C(=O)N[C@@H](CCCCN)C(=O)NCCC1CCCCC1)c1ccc(CCCCCCN)cc1 (stereo not given in full)
Result: 18

Problem: Try this compound too: "NCCCCCCc1ccc(CC(=O)N[C@@H](CO)C(=O)N[C@@H](CCCCN)C(=O)NCCC2CCCCC2)cc1"
Result: 7.3

* * *

Biological target: Glycylpeptide N-tetradecanoyltransferase (Candida albicans (strain SC5314 / ATCC MYA-2876) (Yeast), UniProt P30418)
Sequence (P30418 whole entry): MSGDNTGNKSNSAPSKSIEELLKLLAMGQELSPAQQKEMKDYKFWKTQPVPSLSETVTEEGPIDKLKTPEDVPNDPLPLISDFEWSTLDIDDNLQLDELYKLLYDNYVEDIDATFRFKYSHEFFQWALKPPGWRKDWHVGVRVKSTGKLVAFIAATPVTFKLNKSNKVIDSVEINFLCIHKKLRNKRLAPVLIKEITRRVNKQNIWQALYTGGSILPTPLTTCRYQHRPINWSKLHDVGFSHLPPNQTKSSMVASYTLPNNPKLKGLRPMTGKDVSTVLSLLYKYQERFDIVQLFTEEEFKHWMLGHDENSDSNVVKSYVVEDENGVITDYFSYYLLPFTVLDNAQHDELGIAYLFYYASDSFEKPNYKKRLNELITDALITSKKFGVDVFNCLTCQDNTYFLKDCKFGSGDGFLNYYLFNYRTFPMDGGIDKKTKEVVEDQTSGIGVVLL
Assay: Inhibitory activity against N-myristoyltransferase (NMT) of candida albicans
Non-standard residues stand in square brackets, D forms with d. Residues, ends and D or L forms follow the SMILES beside them. *: point of attachment. NHPhenethyl = c1ccc(CCN*)cc1; Aun = NCCCCCCCCCCC(=O)O; βAla = NCCC(=O)O; Sar = CNCC(=O)O
Attribute: IC50
Record the value in µM, omitting the unit from your answer.

NCCCCCCCCCCC(=O)N[C@@H](CO)C(=O)N[C@@H](CCCCN)C(=O)NCCc1ccccc1 (H-[Aun]-Ser-Lys-NHPhenethyl): 5
NCCCCCCCCc1ccc(CC(=O)N[C@@H](CO)C(=O)N[C@@H](CCCCN)C(=O)NCCC2CCCCC2)cc1: 0.75
CNCC(=O)N[C@@H](CC(C)C)C(=O)N[C@@H](Cc1ccc(O)cc1)C(=O)N(C)CC(=O)N[C@@H](CO)C(=O)N[C@@H](CCCCN)C(=O)N[C@@H](CC(C)C)C(=O)N[C@@H](CO)C(N)=O (H-[Sar]LY[Sar]SKLS-NH2): 80
NCCCC[C@H](NC(=O)[C@H](CO)NC(=O)CCCCC#Cc1ccc(CN)cc1)C(=O)NCCC1CCCCC1: 0.17
NCCCCCCCCCCC(=O)N[C@@H](CO)C(=O)N[C@@H](CCCCN)C(=O)N[C@@H](Cc1ccccc1)C(N)=O (H-[Aun]SKF-NH2): 8.2

Problem: Consider the molecule "NCCCCCCCCCCC(=O)N[C@@H](CO)C(=O)N[C@@H](CCCCN)C(=O)NCCCC1CCCCC1" and give its measured IC50.
Result: 1.3

Problem: Try this molecule too: "NCCCC[C@H](NC(=O)[C@H](CO)NC(=O)CCCCCCc1ccc(CN)cc1)C(=O)NCCC1CCCCC1"
Result: 0.34

Problem: Try this molecule too: COC(=O)[C@H](CC(C)C)NC(=O)[C@H](CCCCN)NC(=O)[C@H](CO)NC(=O)CCCCCCCCCCN (H-[Aun]SKL-OMe)
Result: 0.6

Problem: Try this molecule too: CC(C)C[C@H](NC(=O)CCN)C(=O)N[C@@H](Cc1ccc(O)cc1)C(=O)N[C@@H](C)C(=O)N[C@@H](CO)C(=O)N[C@@H](CCCCN)C(=O)N[C@@H](CC(C)C)C(=O)N[C@@H](CO)C(N)=O (H-[βAla]LYASKLS-NH2)
Result: 110

Problem: Try this molecule too: "NCCCCCc1cccc(CC(=O)N[C@@H](CO)C(=O)N[C@@H](CCCCN)C(=O)NCCC2CCCCC2)c1"
Result: 0.52

* * *

Biological target: Glycylpeptide N-tetradecanoyltransferase (Candida albicans (strain SC5314 / ATCC MYA-2876) (Yeast), UniProt P30418)
Assay: Inhibitory activity against N-myristoyltransferase (NMT) of candida albicans
Non-standard residues stand in square brackets, D forms with d. Residues, ends and D or L forms follow the SMILES beside them. 12Ado = NCCCCCCCCCCCC(=O)O; Ahp = NCCCCCCC(=O)O
Observable: IC50

# annotated cases, reported IC50 shown
COC(=O)[C@H](CC(C)C)NC(=O)[C@H](CCCCN)NC(=O)[C@H](CO)NC(=O)CCCCCCN (H-[Ahp]SKL-OMe): > 100 µM
CC(C)C[C@H](NC(=O)[C@H](CCCCN)NC(=O)[C@H](CO)NC(=O)CCCCCCCCCCN)C(N)=O (stereo in doubt): > 1000 µM
COC(=O)[C@H](CC(C)C)NC(=O)[C@H](CCCCN)NC(=O)[C@H](CO)NC(=O)CCCCCCCCCCCN (H-[12Ado]SKL-OMe): 0.27 µM
CC(C(=O)N[C@@H](CO)C(=O)N[C@@H](CCCCN)C(=O)NCCC1CCCCC1)c1ccc(CCCCCCN)cc1 (stereo not given in full): 0.043 µM
NCCCC[C@H](NC(=O)[C@H](CO)NC(=O)Cc1ccc(CCc2ccc(CN)cc2)cc1)C(=O)NCCC1CCCCC1: 0.75 µM
CC(C)CCNC(=O)[C@H](CCCCN)NC(=O)[C@H](CO)NC(=O)CCCCCCCCCCN: 0.78 µM
COC(=O)[C@H](CC(C)C)NC(=O)[C@H](CCCCN)NC(=O)[C@H](CO)NC(=O)CCCCCCCCCCN(C)C: 0.69 µM
COC(=O)[C@H](CC(C)C)NC(=O)[C@H](CCCCN)NC(=O)[C@H](CO)NC(=O)CCCCCCCCN: 5.2 µM

Now for a further compound.
Problem: Consider the compound "CC(C)CCNC(=O)[C@@H](CCCCN)NC(=O)[C@@H](CO)NC(=O)CCCCCCCCCCN" and give its measured IC50.
Result: 365 µM
